Target: CDK4-NanoLuc fusion with CCND1 in 293T or 293 cells (Homo sapiens)
Construct: host or cells: 293T (ATCC CRL-3216) or 293 (ATCC CRL-1573)
Sequence (P11802 whole entry, the tested form may be a part): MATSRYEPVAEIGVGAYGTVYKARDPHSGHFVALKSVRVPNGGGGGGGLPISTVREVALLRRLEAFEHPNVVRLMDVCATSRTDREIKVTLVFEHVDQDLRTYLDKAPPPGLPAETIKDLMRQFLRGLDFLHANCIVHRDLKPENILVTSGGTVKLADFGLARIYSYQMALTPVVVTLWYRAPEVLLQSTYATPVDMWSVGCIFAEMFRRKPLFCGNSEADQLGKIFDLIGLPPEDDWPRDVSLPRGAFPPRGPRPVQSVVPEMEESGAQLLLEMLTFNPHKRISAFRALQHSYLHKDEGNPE
Sequence (P24385 whole entry partner, the tested form may be a part): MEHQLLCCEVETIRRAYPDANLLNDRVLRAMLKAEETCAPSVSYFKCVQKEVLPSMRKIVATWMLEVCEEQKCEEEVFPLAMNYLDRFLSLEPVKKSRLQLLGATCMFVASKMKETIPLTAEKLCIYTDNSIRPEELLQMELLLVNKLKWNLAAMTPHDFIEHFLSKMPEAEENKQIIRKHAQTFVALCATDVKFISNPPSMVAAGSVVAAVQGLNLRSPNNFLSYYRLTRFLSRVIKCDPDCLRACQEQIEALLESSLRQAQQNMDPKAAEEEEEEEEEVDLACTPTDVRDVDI
Test: NanoBRET Target Engagement (TE) Intracellular Kinase Assay, CDK4/CCND1
Format: cell-based
Settings: NanoBRET TE intracellular kinase assay, 2-hour incubation, read-out: NanoBRET-CDK4/D1 IC50
metric.name: IC50 (µM)

>  <molecule.smiles>
Cc1sc(-c2cccc(O)c2C=O)nc1C(=O)Nc1cc([C@H]2CC[C@@H](OC(=O)NC(C)C)C2)[nH]n1

>  <IC50 / µM>
4.63

$$$$
>  <molecule.smiles>
COc1cc(O)c(C=O)c(OCC(=O)Nc2cc([C@H]3CC[C@@H](OC(=O)N4CCC(F)(F)C4)C3)[nH]n2)c1

>  <IC50 / µM>
6.11

$$$$
